# Target of assay: PDE6 in bovine retina (Bos taurus, UniProt P11541+P23439)
# Construct: obtained by suitably treating various tissues and separating the enzyme with FPLC; from tissue; host or cells: bovine retina
# Sequence (P11541 2-856 limits assumed): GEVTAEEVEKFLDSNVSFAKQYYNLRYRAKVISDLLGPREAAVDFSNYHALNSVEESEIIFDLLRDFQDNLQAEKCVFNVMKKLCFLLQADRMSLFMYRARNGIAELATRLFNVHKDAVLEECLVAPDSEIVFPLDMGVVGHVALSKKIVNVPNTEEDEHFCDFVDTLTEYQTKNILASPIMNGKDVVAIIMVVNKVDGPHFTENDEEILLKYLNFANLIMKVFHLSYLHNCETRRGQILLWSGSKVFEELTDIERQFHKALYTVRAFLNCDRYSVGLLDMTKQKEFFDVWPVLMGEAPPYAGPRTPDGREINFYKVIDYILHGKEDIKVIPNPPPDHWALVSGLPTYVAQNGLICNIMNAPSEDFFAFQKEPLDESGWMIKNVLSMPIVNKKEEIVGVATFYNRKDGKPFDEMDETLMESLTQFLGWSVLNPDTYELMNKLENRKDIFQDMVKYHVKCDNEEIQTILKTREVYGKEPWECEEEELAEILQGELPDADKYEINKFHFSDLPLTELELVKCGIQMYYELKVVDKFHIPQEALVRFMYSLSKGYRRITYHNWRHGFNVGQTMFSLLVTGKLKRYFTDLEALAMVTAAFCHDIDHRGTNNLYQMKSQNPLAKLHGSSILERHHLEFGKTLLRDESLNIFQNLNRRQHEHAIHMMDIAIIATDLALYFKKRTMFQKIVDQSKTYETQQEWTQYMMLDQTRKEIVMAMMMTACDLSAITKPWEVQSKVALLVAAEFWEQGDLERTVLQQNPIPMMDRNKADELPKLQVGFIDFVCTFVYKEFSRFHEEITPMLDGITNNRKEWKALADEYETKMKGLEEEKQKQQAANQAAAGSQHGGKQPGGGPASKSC
# Sequence (P23439 2-850 limits assumed): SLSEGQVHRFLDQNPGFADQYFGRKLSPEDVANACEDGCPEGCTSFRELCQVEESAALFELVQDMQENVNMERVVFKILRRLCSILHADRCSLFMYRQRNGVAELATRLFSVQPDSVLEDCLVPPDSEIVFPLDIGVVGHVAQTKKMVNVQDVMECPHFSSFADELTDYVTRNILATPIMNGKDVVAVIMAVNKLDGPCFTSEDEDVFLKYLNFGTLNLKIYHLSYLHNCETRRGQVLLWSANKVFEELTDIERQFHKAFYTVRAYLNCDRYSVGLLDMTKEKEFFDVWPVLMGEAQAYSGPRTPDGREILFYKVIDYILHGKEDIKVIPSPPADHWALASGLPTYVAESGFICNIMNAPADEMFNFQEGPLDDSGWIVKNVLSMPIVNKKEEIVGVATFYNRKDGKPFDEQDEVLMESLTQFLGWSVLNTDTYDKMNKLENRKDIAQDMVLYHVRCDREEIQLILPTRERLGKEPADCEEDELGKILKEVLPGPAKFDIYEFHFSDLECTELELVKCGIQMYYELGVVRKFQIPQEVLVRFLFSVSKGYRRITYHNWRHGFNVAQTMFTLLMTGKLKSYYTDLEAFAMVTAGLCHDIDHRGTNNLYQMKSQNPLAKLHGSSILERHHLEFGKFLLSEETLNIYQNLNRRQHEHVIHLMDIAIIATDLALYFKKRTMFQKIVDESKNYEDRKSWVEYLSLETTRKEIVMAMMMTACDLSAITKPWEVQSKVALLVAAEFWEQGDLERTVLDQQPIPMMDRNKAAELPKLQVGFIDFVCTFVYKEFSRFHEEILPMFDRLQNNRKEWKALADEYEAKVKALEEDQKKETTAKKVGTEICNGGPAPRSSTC
# Assay method text: PDE6 enzyme inhibition activity test (scintillation proximity)
# Type: biochemical
# Assay setup: selectivity, ratio of IC50 PDE6/IC50 PDE5
Measure name: PDE6 IC50/PDE5 IC50

See these solved cases before continuing.
Compound: CCCOc1ccc(S(=O)(=O)NC(CC(N)=O)C(=O)O)cc1-c1nc(CC)c(CC)c(=O)[nH]1 (centres unmarked)
Number: 30.7
--
Compound: CCCOc1ccc(C(=O)N2CCOCC2)cc1-c1nc(CC)c(CC)c(=O)[nH]1
Number: 13.7
--
Compound: CCCOc1ccc(NC(=O)C(F)(F)F)cc1-c1nc(CC)c(CC)c(=O)[nH]1
Number: 3.77
--
Compound: CCCOc1ccc(C(=O)CN2CCOCC2)cc1-c1nc(CC)c(CC)c(=O)[nH]1
Number: 12.7
--
Compound: CCCOc1ccc(NC(C)=O)cc1-c1nc(CC)c(CC)c(=O)[nH]1
Number: 66.2

1. CCCOc1ccc(C(=O)N2CCN(CCOCCO)CC2)cc1-c1nc(CC)c(CC)c(=O)[nH]1
2. CCCOc1ccc(C(=O)N2CCCCC2)cc1-c1nc(CC)c(CC)c(=O)[nH]1
3. CCCOc1ccc(S(=O)(=O)NC(C)C(=O)OCC)cc1-c1nc(CC)c(CC)c(=O)[nH]1 (centres unmarked)
List the 3 entries from lowest PDE6 IC50/PDE5 IC50 to highest PDE6 IC50/PDE5 IC50 value. Put the labels in the requested order and list them out.
2, 1, 3
(2: 4.0, 1: 6.1, 3: 27.3)
